assay: label from the status in PepcDB records

[
  {
    "construct sequence": "MSKKLVLLIISILCFTALTGCWIVRSDLSGDIIIGDGHGGTSHSIIKYNPATNKFESVEPGLYYEVEYNDDKSKILCYRFLENSEVRRFEICEYDIKSKKFGEPIFIPGDSQKFKGSVKYVPNSDRISFVLDYELHIYDRSSGTLTKLFEVAFNSYSWDNTGKKLLYGDYDENIYIYDMESNEKRKILTGICPVYSNSNEYIAYIGIDQRLTVYNVNTGKKWRTVPVDDSARYIFSPDDKYILLGTEYADLMSFPHYTLYILDYKTGKKKRLFGGEGNVPSLDWK",
    "protein production": "failed"
  },
  {
    "construct sequence": "MVRLIFSDIDGTLINSNFKVTPKTRQGIKQIVAQGATFVPISARMPEAITPIMEQIGIDSYIISYNGALIQDMQQKTIASHTMDGQVALQVCSYVSKHYSKIAWNVYRYHEWYSCDKENEWVQKEEEIVGLQSKEMSLMELEKQDRIHKLLLMGEPSLMGELENTLKAQYPHLSIAQSAPYFIEIMAPGIEKGKSAKTLADYLDISLADSIAFGDNYNDLNLLEIVGKGFVMGNAPKDLQERIGNVTQDNDNDGIYYALVEYMEN",
    "protein production": "failed"
  },
  {
    "construct sequence": "MARPRKPTNVLELTGAFKKDPQRRREDAEPVGELTAPPAHINGAVLHAWKEIAKYAPRDVLTNSDRLSLELAANLLAQFRNDPLDFPAAKLVRLEAMLGKFGMTPADRSKVGGGKKDAPKGNAFAEL",
    "protein production": "failed"
  }
]
